Below, each of the compounds is paired with its reported inhibition at 1 µM value.
TESTED_SYSTEM: 17β-hydroxysteroid dehydrogenase type 1 (17β-HSD type 1) (Homo sapiens)
Construct: expressed in transfected cells; host or cells: MCF-7
Sequence (P14061 whole entry): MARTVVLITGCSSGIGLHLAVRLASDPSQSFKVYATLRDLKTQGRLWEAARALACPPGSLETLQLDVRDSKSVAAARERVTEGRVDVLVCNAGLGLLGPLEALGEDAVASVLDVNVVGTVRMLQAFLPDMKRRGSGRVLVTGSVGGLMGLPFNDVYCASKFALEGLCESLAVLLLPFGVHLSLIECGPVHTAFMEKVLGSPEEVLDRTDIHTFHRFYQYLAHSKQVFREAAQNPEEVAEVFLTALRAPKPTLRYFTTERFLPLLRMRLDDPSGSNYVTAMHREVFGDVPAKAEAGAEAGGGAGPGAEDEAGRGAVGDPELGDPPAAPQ
ASSAY_REMARKS: Inhibition of 17β-HSD type 1 in MCF-7 cells stably expressing the isoenzyme (tritium labeled estrone conversion, HPLC)
Type: cell-based
TEST_CONTEXT: MCF7; 1 μM test compound; MCF-7 cells expressing 17β-HSD type 1; 2 nM tritium labeled estrone; read-out: % Inhibition HSD1 1 μM
Write the number in % without appending the unit.

Solved cases below.
                                   compound  recorded_measurement
0  COc1cc(-c2nc3sc4c(Cl)c(C=O)ccc4c3c(=O)n2Cc2ccccc2)c(Cl)c(OC)c1OC [No. 150]                   0.4
1  COc1cc(-c2nc3sc4c(c3c(=O)n2CC(C)C)CCCC4)cc(OC)c1OC [No. 113]                  22.2
2  COc1cc(-c2nc3sc4c(c3c(=O)n2-c2ccccc2)CCCC4)cc(OC)c1OC [No. 10]                  12.7
3  O=c1c2c(nc(-c3cccs3)n1CCO)sc1c(O)c(Br)ccc12 [No. 149]                  17.8
4  COc1cc(-c2nc3sc4c(c3c(=O)n2Cc2ccccc2)CCCC4=O)cc(OC)c1OC [No. 2]                  17.3
5  COc1ccc(-c2nc3sc4c(c3c(=O)n2Cc2ccccc2)CCC(Br)C4=O)cc1 (stereo not drawn) [No. 146]                   7.3
6  O=c1c2c(nc(-c3ccc(Br)s3)n1Cc1ccccc1)sc1c(O)cccc12 [No. 68]                     9
7  COc1cc(-c2nc3sc4c(c3c(=O)n2CC2CCCO2)CCC(Br)C4=O)c(Br)c(OC)c1OC (stereo not drawn) [No. 132]                  23.8

Would you kindly look at the next entry?
Prompt: Item COC(=O)Cc1nc2sc3c(c2c(=O)n1Cc1ccccc1)CCCC3 [No. 26] : provide inhibition at 1 µM
Completion: 23.5

----------
TESTED_SYSTEM: 17β-hydroxysteroid dehydrogenase type 3 (17β-HSD type 3) (Homo sapiens)
Construct: expressed in transfected cells; host or cells: MCF-7
Sequence (P37058 1-310): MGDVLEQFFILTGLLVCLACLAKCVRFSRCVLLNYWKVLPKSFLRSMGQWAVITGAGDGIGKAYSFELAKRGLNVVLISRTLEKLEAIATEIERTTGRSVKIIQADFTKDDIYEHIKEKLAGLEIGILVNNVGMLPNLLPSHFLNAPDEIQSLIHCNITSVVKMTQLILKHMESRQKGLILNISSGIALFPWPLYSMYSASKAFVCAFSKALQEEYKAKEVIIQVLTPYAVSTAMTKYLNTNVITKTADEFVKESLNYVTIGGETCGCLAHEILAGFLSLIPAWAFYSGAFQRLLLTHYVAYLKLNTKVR
ASSAY_REMARKS: Inhibition of 17β-HSD type 3 in MCF-7 cells stably expressing the isoenzyme (tritium labeled androstenedione conversion, HPLC)
Type: cell-based
TEST_CONTEXT: MCF7; 10 μM test compound; MCF-7 cells expressing 17β-HSD type 3; 2 nM tritium labeled androstenedione; read-out: % Inhibition HSD3 10 μM
Label Met when inhibition at 10 µM is at or above 30%; otherwise label Not met.

>>> print(df.to_string())
                                   compound  category_label
0  COc1cc(-c2nc3sc4c(O)cc(C)cc4c3c(=O)n2Cc2ccccc2)c(Br)c(OC)c1OC         Not met
1  COc1cccc(-c2nc3sc4c(c3c(=O)n2Cc2ccccc2)CCC(Br)C4=O)c1 (centres unmarked)             Met
2  COc1cc(-c2nc3sc4c(c3c(=O)n2Cc2ccccc2)C(Br)CCC4=O)cc(OC)c1OC (centres unmarked)             Met
3  O=C1c2sc3nc(-c4ccc(Br)s4)n(Cc4ccccc4)c(=O)c3c2CCC1Br (centres unmarked)             Met
4  CCCCn1c(-c2cc(OC)c(OC)c(OC)c2)nc2sc3c(c2c1=O)CCC(Br)C3=O (centres unmarked)             Met

Prompt: Test whether the compound `COc1cc(-c2nc3sc4c(OC)cccc4c3c(=O)n2Cc2ccccc2)c(Br)c(OC)c1OC` records inhibition at 10 µM of 30% or higher.
Completion: Not met

Prompt: Please tell me: is the compound `O=c1c2c(nc(-c3ccccc3)n1Cc1ccccc1)sc1c(O)c(Br)ccc12` at or over 30% in terms of inhibition at 10 µM?
Completion: Not met

Prompt: Does inhibition at 10 µM meet or surpass 30% for `COc1cc(-c2nc3sc4c(OC(C)=O)cccc4c3c(=O)n2Cc2ccccc2)cc(OC)c1OC` ?
Completion: Met

Prompt: Reported inhibition at 10 µM at or above 30%? Cc1nc2sc3c(c2c(=O)n1-c1ccccc1)CCC(Br)C3=O (centres unmarked)
Completion: Not met

Prompt: Please check the record `CCOC1=C(C=O)CCc2c1sc1nc(-c3cc(OC)c(OC)c(OC)c3)n(Cc3ccccc3)c(=O)c21` and state if its inhibition at 10 µM is at or above 30%.
Completion: Not met

Prompt: Confirm if inhibition at 10 µM reported for the compound `CCCc1nc2sc3c(c2c(=O)n1Cc1ccco1)CCCC3` is 30% or above.
Completion: Not met

Prompt: hey, is inhibition at 10 µM for this one >= 30%? `CCCc1nc2sc3c(c2c(=O)n1Cc1ccc(Br)o1)CCC(Br)(Br)C3=O`
Completion: Met

----------
TESTED_SYSTEM: 17β-hydroxysteroid dehydrogenase type 3 (17β-HSD type 3) (Homo sapiens, UniProt P37058)
Construct: expressed in transfected cells; host or cells: MCF-7
Sequence (P37058 1-310): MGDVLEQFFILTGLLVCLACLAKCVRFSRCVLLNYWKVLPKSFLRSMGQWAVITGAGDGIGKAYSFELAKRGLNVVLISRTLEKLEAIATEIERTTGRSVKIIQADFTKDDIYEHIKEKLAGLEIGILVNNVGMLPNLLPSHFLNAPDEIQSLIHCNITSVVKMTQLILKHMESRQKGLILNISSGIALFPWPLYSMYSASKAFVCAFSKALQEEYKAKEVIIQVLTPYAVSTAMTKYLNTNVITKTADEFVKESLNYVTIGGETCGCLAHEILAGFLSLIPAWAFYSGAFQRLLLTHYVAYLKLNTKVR
ASSAY_REMARKS: Inhibition of 17β-HSD type 3 in MCF-7 cells stably expressing the isoenzyme (tritium labeled androstenedione conversion, HPLC)
Type: cell-based
TEST_CONTEXT: MCF7; 10 μM test compound; MCF-7 cells expressing 17β-HSD type 3; 2 nM tritium labeled androstenedione; read-out: % Inhibition HSD3 10 μM
Below, each entry is listed alongside its reported inhibition at 10 µM.
# number only, unit % dropped from output

The following compounds have reported results that may help.
In [3]: df
Out[3]:
                                   compound                             tested_system     measurement_kind  recorded_measurement
0  COc1cc(-c2nc3sc4c(Sc5ccccc5)c(C=O)ccc4c3c(=O)n2Cc2ccccc2)cc(OC)c1OC  17β-hydroxysteroid dehydrogenase type 3 (17β-HSD type 3) (Homo sapiens, UniProt P37058)  inhibition at 10 µM                   1.4
1     Cc1nc2sc3c(c2c(=O)n1-c1ccccc1)CCCC3=O  17β-hydroxysteroid dehydrogenase type 3 (17β-HSD type 3) (Homo sapiens, UniProt P37058)  inhibition at 10 µM                    29
2  CCCCn1c(-c2cc(OC)c(OC)c(OC)c2)nc2sc3c(O)cccc3c2c1=O  17β-hydroxysteroid dehydrogenase type 3 (17β-HSD type 3) (Homo sapiens, UniProt P37058)  inhibition at 10 µM                  80.1

Prompt: // fetch inhibition at 10 µM given entry `COc1cc(-c2nc3sc4c(c3c(=O)n2Cc2ccccc2)CCCC4=O)cc(OC)c1OC`
Completion: 40.5

Prompt: Quick one: give measured inhibition at 10 µM for `COc1ccc(-c2nc3sc4c(c3c(=O)n2-c2ccccc2)CCCC4)cc1`
Completion: 28.6

Prompt: Give the value of inhibition at 10 µM reported for the following: `CCCc1nc2sc3c(c2c(=O)n1Cc1cc(Br)ccc1OC)CCC(Br)(Br)C3=O`
Completion: 11.5

----------
# inhibition at 1 µM per entry
TESTED_SYSTEM: 17β-hydroxysteroid dehydrogenase type 3 (17β-HSD type 3) (Homo sapiens, UniProt P37058)
Construct: expressed in transfected cells; host or cells: MCF-7
ASSAY_REMARKS: Inhibition of 17β-HSD type 3 in MCF-7 cells stably expressing the isoenzyme (tritium labeled androstenedione conversion, HPLC)
Assay type: cell-based
TEST_CONTEXT: MCF7; 1 μM test compound; MCF-7 cells expressing 17β-HSD type 3; 2 nM tritium labeled androstenedione; read-out: % Inhibition HSD3 1 μM
Write it as a number; the unit % goes unstated.

In [3]: df
Out[3]:
                                   compound  units_symbol  recorded_measurement
0  O=C1c2sc3nc(-c4cccs4)n(Cc4ccccc4)c(=O)c3c2CCC1Br (stereo not drawn)             %                  21.8
1  COc1cc(-c2nc3sc4c(c3c(=O)n2Cc2ccccc2)CCC(C=O)=C4Cl)cc(OC)c1OC             %                 -19.4
2  CCCc1nc2sc3c(c2c(=O)n1Cc1ccc(Br)o1)CCC(Br)C3=O (stereo not drawn)             %                  -7.7
3       Cc1nc2sc3c(c2c(=O)n1-c1ccccc1)CCCC3             %                  17.1
4  COc1cccc(-c2nc3sc4c(O)cccc4c3c(=O)n2Cc2ccccc2)c1             %                  13.5

Prompt: Provide measured inhibition at 1 µM on 17β-hydroxysteroid dehydrogenase type 3 (17β-HSD type 3) (Homo sapiens, UniProt P37058) for `COCCn1c(-c2cccs2)nc2sc3c(c2c1=O)CCCC3` please.
Completion: 8.3

Prompt: With 17β-hydroxysteroid dehydrogenase type 3 (17β-HSD type 3) (Homo sapiens, UniProt P37058) as the test system, provide measured inhibition at 1 µM for this compound: `Cc1nc2sc3c(c2c(=O)n1-c1ccccc1)CCC(Br)(Br)C3=O`
Completion: -2.2
